Assay: AUC (0 to infinity) in rat at 5 umol/kg, intra arterial and 2 umol/kg, po
Format: ADME, organism-based
Parameters: dose 5 umol/kg, route oral, time infinity
Details: plasma
experimental_readout: AUC(0-inf) (µM·h)
Report only the number, with the unit µM·h understood.

Q: Look up AUC(0-inf) for this molecule: `Cc1nc2nc(C(=O)N3CCOCC3)cn2c(-c2ccc(Cl)cc2Cl)c1CN`
Result: 0.714

* * *

Assay: Cmax in ob/ob mouse at 3 mg/kg, po after 1 hr
Format: ADME, organism-based
Design: dose 3 mg/kg, route oral
Settings: in vivo
experimental_readout: Cmax (nM)
Report only the number, with the unit nM understood.

Q: Look up Cmax for this compound: `Cc1nc2nc(C(=O)N3CC[C@H](NS(C)(=O)=O)C3)cn2c(-c2ccc(Cl)cc2Cl)c1CN`
Result: 45

* * *

Assay: Clearance in iv dosed dog
Assay type: ADME, organism-based, Canis lupus familiaris
Settings: in vivo
experimental_readout: clearance (L/h/kg)
Report only the number, with the unit L/h/kg understood.

Q: Look up clearance for this compound: `Cc1nc2nc(C(=O)N3CCOCC3)cn2c(-c2ccc(Cl)cc2Cl)c1CN`
Result: 0.474

* * *

Here, each record is paired with measured Papp data.
Experiment: Membrane permeability by PAMPA assay
Type: ADME
Conditions: read-out: permeability
Report only the number, with the unit ×10⁻⁶ cm/s understood.

Use the examples below as a reference point.
1. Cc1nc2nc(C(=O)N3CCOCC3)cn2c(-c2ccc(Cl)cc2Cl)c1CN; 46.4
2. Cc1nc2nc(C(=O)N3CCCC3)cn2c(-c2ccc(Cl)cc2Cl)c1CN; 51.8

Could you now look at the following molecule, please?
Q: Look up Papp for this molecule: `CCn1nccc1NC(=O)c1cn2c(-c3ccc(Cl)cc3Cl)c(CN)c(C)nc2n1`
Result: 66.9

* * *

Target: Dipeptidyl peptidase 8 (Homo sapiens)
Sequence (Q6V1X1 whole entry): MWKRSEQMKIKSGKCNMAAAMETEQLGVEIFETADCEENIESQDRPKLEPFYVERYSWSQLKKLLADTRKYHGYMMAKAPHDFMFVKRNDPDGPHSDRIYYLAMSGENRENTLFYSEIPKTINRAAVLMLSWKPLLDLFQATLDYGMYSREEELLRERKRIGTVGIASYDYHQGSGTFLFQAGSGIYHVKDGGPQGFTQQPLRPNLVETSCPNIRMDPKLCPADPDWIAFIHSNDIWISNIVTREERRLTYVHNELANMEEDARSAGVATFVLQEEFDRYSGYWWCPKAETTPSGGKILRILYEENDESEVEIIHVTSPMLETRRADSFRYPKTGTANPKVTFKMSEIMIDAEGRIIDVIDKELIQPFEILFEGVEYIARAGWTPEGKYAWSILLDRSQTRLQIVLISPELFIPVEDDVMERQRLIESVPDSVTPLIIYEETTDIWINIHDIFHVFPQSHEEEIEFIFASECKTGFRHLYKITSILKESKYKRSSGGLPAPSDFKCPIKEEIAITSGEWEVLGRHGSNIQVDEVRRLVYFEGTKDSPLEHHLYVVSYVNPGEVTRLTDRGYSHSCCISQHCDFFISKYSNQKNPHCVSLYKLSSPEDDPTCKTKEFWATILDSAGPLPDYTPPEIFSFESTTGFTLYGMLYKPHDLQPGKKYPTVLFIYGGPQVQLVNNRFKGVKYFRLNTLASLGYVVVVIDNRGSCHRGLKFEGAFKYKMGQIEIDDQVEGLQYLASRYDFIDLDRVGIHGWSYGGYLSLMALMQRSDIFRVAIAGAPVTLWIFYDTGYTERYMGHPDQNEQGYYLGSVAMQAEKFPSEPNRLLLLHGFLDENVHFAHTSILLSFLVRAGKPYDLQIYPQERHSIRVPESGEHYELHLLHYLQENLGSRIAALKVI
experimental_readout: Ki

Q: Look up Ki for this compound: `Cc1nc2nc(C(=O)NC3CCN(C(C)C)CC3)cn2c(-c2ccc(Cl)cc2Cl)c1CN`
Result: > 10 µM
